Biological target: Protein AF-9 (Homo sapiens, UniProt P42568)
Square brackets hold non-standard residues; d marks the D form. Peptide text beside a SMILES is read from it. * marks the point of attachment. X3 = c1ccc(-c2cn(CC3CCCCC3)c([C@@H]3CCCN3*)n2)cc1; Ala(cPent) = N[C@@H](CC1CCCC1)C(=O)O; Cba = N[C@@H](CC1CCC1)C(=O)O; Orn = NCCC[C@H](N)C(=O)O; Dap = NC[C@H](N)C(=O)O; Bz = O=C(c1ccccc1)*
MEASUREMENT_KIND: Ki (nM)
Express it in nM; write the number only.

COMPOUND	TESTED_TARGET	UNITS_OF_MEASURE	REPORTED
CC[C@H](C)[C@H](NC(=O)[C@H](CO)NC(=O)[C@H](CC(C)C)NC(=O)[C@@H]1CCCN1C(=O)[C@H](CC(C)C)NC(C)=O)C(=O)N1CCC[C@H]1C(=O)N[C@@H](CC(C)C)C(=O)N(C)C (Ac-LPLSIPL-NMe2)	Protein AF-9 (Homo sapiens, UniProt P42568)	nM	1160

Specify Ki for CC[C@H](C)[C@H](NC(=O)[C@@H]1CCCN1C(=O)[C@H](CC(C)C)NC(C)=O)C(=O)N[C@@H](CN)C(=O)N[C@H](C(=O)N1CCC[C@H]1C(=O)N[C@@H](CC(C)C)C(=O)N(C)C)[C@@H](C)CC (Ac-LPI[Dap]IPL-NMe2) and stop.
190

Specify Ki for CC[C@H](C)[C@H](NC(=O)[C@H](CO)NC(=O)[C@H](CC1CCC1)NC(=O)[C@@H]1CCCN1C(=O)[C@H](CC(C)C)NC(C)=O)C(=O)N1CCC[C@H]1C(=O)N[C@@H](CC(C)C)C(=O)N(C)C (Ac-LP[Cba]SIPL-NMe2) and stop.
1310

Specify Ki for CC(C)[C@H](NC(=O)[C@@H]1CCCN1C(=O)c1ccccc1)C(=O)N[C@@H](CN)C(=O)N[C@@H](CC1CCCC1)C(=O)N1CCC[C@H]1c1nc(-c2ccccc2)cn1CC1CCCCC1 (Bz-PV[Dap][Ala(cPent)]-X3) and stop.
9

Specify Ki for CC[C@H](C)[C@H](NC(=O)[C@@H]1CCCN1C(=O)[C@H](CC(C)C)NC(C)=O)C(=O)N[C@@H](CCCN)C(=O)N[C@H](C(=O)N1CCC[C@H]1C(=O)N[C@@H](CC(C)C)C(=O)N(C)C)[C@@H](C)CC (Ac-LPI[Orn]IPL-NMe2) and stop.
4250

====

Biological target: Protein AF-9 (Homo sapiens, UniProt P42568)
Sequence (P42568 whole entry): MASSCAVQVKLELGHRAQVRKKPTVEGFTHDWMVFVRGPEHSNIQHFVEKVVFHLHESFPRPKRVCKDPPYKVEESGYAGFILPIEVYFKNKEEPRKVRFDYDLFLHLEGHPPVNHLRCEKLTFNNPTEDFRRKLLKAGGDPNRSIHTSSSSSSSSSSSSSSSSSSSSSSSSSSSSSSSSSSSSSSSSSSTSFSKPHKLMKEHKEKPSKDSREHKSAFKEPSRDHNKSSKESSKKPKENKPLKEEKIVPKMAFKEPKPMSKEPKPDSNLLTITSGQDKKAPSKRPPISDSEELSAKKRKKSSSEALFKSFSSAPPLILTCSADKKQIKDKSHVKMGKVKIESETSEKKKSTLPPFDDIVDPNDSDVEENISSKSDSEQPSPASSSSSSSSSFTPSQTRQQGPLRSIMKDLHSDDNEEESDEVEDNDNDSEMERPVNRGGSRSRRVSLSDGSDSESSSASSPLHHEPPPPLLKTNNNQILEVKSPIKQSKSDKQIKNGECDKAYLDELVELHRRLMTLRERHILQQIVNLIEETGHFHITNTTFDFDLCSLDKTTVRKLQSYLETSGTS
Square brackets hold non-standard residues; d marks the D form. Peptide text beside a SMILES is read from it. * marks the point of attachment. X3 = c1ccc(-c2cn(CC3CCCCC3)c([C@@H]3CCCN3*)n2)cc1; Ala(cPent) = N[C@@H](CC1CCCC1)C(=O)O; Chg = N[C@H](C(=O)O)C1CCCCC1; Orn = NCCC[C@H](N)C(=O)O; Dap = NC[C@H](N)C(=O)O
Response field label takes Criterion met when IC50 is strictly below 4 µM and Criterion not met in all other cases.

Example entries begin here.
COMPOUND	ASSIGNED_LABEL
CC[C@H](C)[C@H](NC(=O)[C@H](CO)NC(=O)[C@H](Cc1ccccc1)NC(=O)[C@@H]1CCCN1C(=O)[C@H](CC(C)C)NC(C)=O)C(=O)N1CCC[C@H]1C(=O)N[C@@H](CC(C)C)C(=O)N(C)C (Ac-LPFSIPL-NMe2)	Criterion not met
CC[C@H](C)[C@H](NC(=O)[C@@H]1CCCN1C(=O)[C@H](CC(C)C)NC(C)=O)C(=O)N[C@@H](CO)C(=O)N[C@@H](Cc1ccccc1)C(=O)N1CCC[C@H]1C(=O)N[C@@H](CC(C)C)C(=O)N(C)C (Ac-LPISFPL-NMe2)	Criterion met
CC[C@H](C)[C@H](NC(=O)[C@@H]1CCCN1C(=O)[C@H](CC(C)C)NC(C)=O)C(=O)N[C@@H](CO)C(=O)N[C@H](C(=O)N1CCC[C@H]1C(=O)N[C@@H](CC(C)C)C(=O)N(C)C)[C@@H](C)CC (Ac-LPISIPL-NMe2)	Criterion met
CC(=O)N[C@@H](CC(C)C)C(=O)N1CCC[C@H]1C(=O)N[C@H](C(=O)N[C@@H](CN)C(=O)N[C@@H](CC1CCCC1)C(=O)N1CCC[C@H]1c1nc(-c2ccccc2)cn1CC1CCCCC1)C(C)C (Ac-LPV[Dap][Ala(cPent)]-X3)	Criterion met
CC[C@H](C)[C@H](NC(=O)[C@@H]1CCCN1C(=O)[C@H](CC(C)C)NC(C)=O)C(=O)N[C@@H](CO)C(=O)N[C@@H](CC(C)C)C(=O)N1CCC[C@H]1C(=O)N[C@@H](CC(C)C)C(=O)N(C)C (Ac-LPISLPL-NMe2)	Criterion not met

Is the reported IC50 for CC[C@H](C)[C@H](NC(=O)[C@@H]1CCCN1C(=O)[C@H](CC(C)C)NC(C)=O)C(=O)N[C@@H](CO)C(=O)N[C@H](C(=O)N1CCC[C@H]1C(=O)N[C@@H](CC(C)C)C(=O)N(C)C)C1CCCCC1 (Ac-LPIS[Chg]PL-NMe2) strictly below 4 µM?
Criterion met

Is the reported IC50 for CC[C@H](C)[C@H](NC(=O)[C@@H]1CCCN1C(=O)[C@H](CC(C)C)NC(C)=O)C(=O)N[C@@H](CCCN)C(=O)N[C@H](C(=O)N1CCC[C@H]1C(=O)N[C@@H](CC(C)C)C(=O)N(C)C)[C@@H](C)CC (Ac-LPI[Orn]IPL-NMe2) strictly below 4 µM?
Criterion not met
